Test system: Fibroblast
assayComment: Multiplex assay against human fibroblast
Format: toxicity, cell-based
conditionNotes: 24 h, 1 µM, compound concentration 1 uM, replicate 1
observedProperty: Population Hoechst High Intensity Objects (%)
The response must be a number in % with no trailing unit.

Form: Entry = CC(F)(F)CN1CCOc2c(nn(-c3ccccc3Cl)c2-c2ccc(Cl)cc2)C1=O | System = Fibroblast | Population Hoechst High Intensity Objects (%) = ____ 1

Form: Entry = Cc1ccc(OCC(O)C(C)NC(C)C)c2c1CCC2.Cl (centres undefined) | System = Fibroblast | Population Hoechst High Intensity Objects (%) = ____ 0

Form: Entry = COc1ccc2[nH]c(I)c(CCNC(C)=O)c2c1 [IODOMELATONIN] | System = Fibroblast | Population Hoechst High Intensity Objects (%) = ____ 0

Form: Entry = Cc1nn(C)c2nc(NNC(=O)Nc3cc(Cl)nc(Cl)c3)cc(C(C)C)c12 | System = Fibroblast | Population Hoechst High Intensity Objects (%) = ____ 1

* * *

Test system: U2OS
assayComment: Multiplex assay against U2OS
Assay type: toxicity, cell-based
conditionNotes: human, 48 h, 10 µM, compound concentration 10 uM, replicate 2
I'd appreciate it if you could supply Population Hoechst High Intensity Objects (%) values for the items below.
The response must be a number in % with no trailing unit.

Form: Entry = CC(C)C[C@H](CO)Nc1nc(S[C@@H](C)c2ccccc2)nc2nc(N)sc12 | System = U2OS | Population Hoechst High Intensity Objects (%) = ____ 3

Form: Entry = O=C(NCCNCC(O)COc1ccc(O)cc1)N1CCOCC1.O=C(NCCNCC(O)COc1ccc(O)cc1)N1CCOCC1.O=C(O)/C=C/C(=O)O (stereo unspecified) [XAMOTEROL FUMARATE] | System = U2OS | Population Hoechst High Intensity Objects (%) = ____ 2

Form: Entry = S=C(NCCCc1c[nH]cn1)NCCCN(Cc1ccc(Cl)c(Cl)c1)c1ccc(Br)cn1 | System = U2OS | Population Hoechst High Intensity Objects (%) = ____ 15

Form: Entry = N[C@](CC1c2ccccc2Oc2ccccc21)(C(=O)O)[C@H]1C[C@@H]1C(=O)O | System = U2OS | Population Hoechst High Intensity Objects (%) = ____ 0

Form: Entry = CCn1c(-c2nc3cc(C(=O)N4CCCC(N)C4)ccc3n2C)cc2ccccc21.Cl (stereo unspecified) | System = U2OS | Population Hoechst High Intensity Objects (%) = ____ 6

Form: Entry = CSc1nc(NC2CCCC2)c([N+](=O)[O-])c(NC2CCCC2)n1 | System = U2OS | Population Hoechst High Intensity Objects (%) = ____ 0

Form: Entry = COc1cc2nc(N3CCN(C(=O)COc4c(OC)cccc4C(C)C)CC3)nc(N)c2cc1OC.Cl.Cl | System = U2OS | Population Hoechst High Intensity Objects (%) = ____ 32

Form: Entry = COc1cc2nc(N3CCN(C(=O)c4ccco4)CC3)nc(N)c2cc1OC.Cl [PRAZOSIN HYDROCHLORIDE] | System = U2OS | Population Hoechst High Intensity Objects (%) = ____ 2

Form: Entry = CN(C)C(=O)Cn1cc(-c2ccc(-c3nnc4ccccn34)cc2)cn1 | System = U2OS | Population Hoechst High Intensity Objects (%) = ____ 2

Form: Entry = C[C@H](NC(=O)CNC(=O)c1cccc(Cl)c1)c1ccccc1 | System = U2OS | Population Hoechst High Intensity Objects (%) = ____ 1

Form: Entry = COc1c(Nc2ccc(S(C)(=O)=O)nc2C)ncnc1OC1CCN(C(=O)OC(C)C)CC1 | System = U2OS | Population Hoechst High Intensity Objects (%) = ____ 3

Form: Entry = COCCn1c(C)c(C)s/c1=N\C(=O)C1C(C)(C)C1(C)C | System = U2OS | Population Hoechst High Intensity Objects (%) = ____ 1

Form: Entry = CN(C)C/C=C/C(=O)Nc1ccc(C(=O)N2CCCC(Nc3ncc(Cl)c(-c4c[nH]c5ccccc45)n3)C2)cc1 (stereo unspecified) | System = U2OS | Population Hoechst High Intensity Objects (%) = ____ 9

Form: Entry = CC(C)(O)C(=O)N1CCN(c2ccc(C(F)(F)F)c(C3=C(c4c[nH]c5ccccc45)C(=O)NC3=O)c2)CC1 | System = U2OS | Population Hoechst High Intensity Objects (%) = ____ 7

Form: Entry = Cc1sc2c(c1C)C(c1ccc(Cl)cc1)=N[C@H](CC(=O)OC(C)(C)C)c1nnc(C)n1-2 | System = U2OS | Population Hoechst High Intensity Objects (%) = ____ 1

Form: Entry = O=c1ccc2ccc(OCCCCN3CCN(c4cccc5sccc45)CC3)cc2[nH]1 | System = U2OS | Population Hoechst High Intensity Objects (%) = ____ 32

* * *

System: Fibroblast
assayComment: Multiplex assay against human fibroblast
Type: toxicity, cell-based
conditionNotes: 12 h, 10 µM, compound concentration 10 uM, replicate 2
observedProperty: Population Fragmented Nuclei (%)
The response must be a number in % with no trailing unit.

# query: Population Fragmented Nuclei (%) of entry O=c1nc2[nH]c3ccccc3nc-2c(=O)[nH]1 41

# query: Population Fragmented Nuclei (%) of entry Cc1nn(C)c2nc(NNC(=O)Nc3cc(Cl)nc(Cl)c3)cc(C(C)C)c12 33

# query: Population Fragmented Nuclei (%) of entry Cc1ccc(OCC(O)C(C)NC(C)C)c2c1CCC2.Cl (stereo unspecified) 33

# query: Population Fragmented Nuclei (%) of entry CCc1nn2c(C)cc(C)nc2c1Cc1ccc(-c2nnc(C3CCNCC3)o2)cc1 38

# query: Population Fragmented Nuclei (%) of entry Cc1sc2c(c1C)C(c1ccc(Cl)cc1)=N[C@H](CC(=O)OC(C)(C)C)c1nnc(C)n1-2 30

# query: Population Fragmented Nuclei (%) of entry O=c1ccc2ccc(OCCCCN3CCN(c4cccc5sccc45)CC3)cc2[nH]1 30

# query: Population Fragmented Nuclei (%) of entry COCCCN1CCC(NC(=O)c2cc(Cl)c(N)c3c2OCC3)CC1 [PRUCALOPRIDE] 28

# query: Population Fragmented Nuclei (%) of entry S=C(NCCCc1c[nH]cn1)NCCCN(Cc1ccc(Cl)c(Cl)c1)c1ccc(Br)cn1 34

# query: Population Fragmented Nuclei (%) of entry CC(C)(O)C(=O)N1CCN(c2ccc(C(F)(F)F)c(C3=C(c4c[nH]c5ccccc45)C(=O)NC3=O)c2)CC1 26

# query: Population Fragmented Nuclei (%) of entry COc1cc(OC2CCN(C(C)=O)CC2)ccc1C(=O)N1CCC(N2C(=O)OCc3ccccc32)CC1 32

# query: Population Fragmented Nuclei (%) of entry Cc1cc(O)c(-c2ccc([C@@H](C)CN(C)C)cc2)c2c1[nH]c(=O)c1sccc12 28

# query: Population Fragmented Nuclei (%) of entry COc1c(Nc2ccc(S(C)(=O)=O)nc2C)ncnc1OC1CCN(C(=O)OC(C)C)CC1 43

# query: Population Fragmented Nuclei (%) of entry CN(C)C(=O)Cn1cc(-c2ccc(-c3nnc4ccccn34)cc2)cn1 31

# query: Population Fragmented Nuclei (%) of entry CCC(=O)OCC(=O)[C@@]1(OC(=O)CC)[C@@H](C)C[C@H]2[C@@H]3CCC4=CC(=O)C=C[C@]4(C)[C@@]3(Cl)[C@@H](O)C[C@@]21C [BECLOMETHASONE DIPROPIONATE] 32

# query: Population Fragmented Nuclei (%) of entry COc1cc(C(=O)N2CC[C@@H](O)[C@@H](N)C2)cc2nc(-c3cc4ccccc4n3CC3CC3)n(C)c12.Cl 30

# query: Population Fragmented Nuclei (%) of entry CCn1c(-c2nc3cc(C(=O)N4CCCC(N)C4)ccc3n2C)cc2ccccc21.Cl (stereo unspecified) 32

# query: Population Fragmented Nuclei (%) of entry C=CCN1C[C@H](C(=O)N(CCCN(C)C)C(=O)NCC)C[C@@H]2c3cccc4[nH]cc(c34)C[C@H]21 44

# query: Population Fragmented Nuclei (%) of entry CC(C)C[C@H](CO)Nc1nc(S[C@@H](C)c2ccccc2)nc2nc(N)sc12 36

# query: Population Fragmented Nuclei (%) of entry COc1ccc2c(c1OCc1ccccc1)C[C@@H](C(=O)O)N(C(=O)C(c1ccccc1)c1ccccc1)C2 18

# query: Population Fragmented Nuclei (%) of entry Cc1cc(NC(=O)NCCN2CCC(O)(Cc3ccccc3)CC2)c2ccccc2n1 28

# query: Population Fragmented Nuclei (%) of entry COc1cc2nc(N3CCN(C(=O)COc4c(OC)cccc4C(C)C)CC3)nc(N)c2cc1OC.Cl.Cl 22

* * *

Test system: U2OS
assayComment: Multiplex assay against U2OS
Type: toxicity, cell-based
conditionNotes: human, 12 h, 10 µM, compound concentration 10 uM, replicate 1
observedProperty: Population Tubulin-Different-Phenotype (%)
The response must be a number in % with no trailing unit.

# query: Population Tubulin-Different-Phenotype (%) of entry CN1CCC(C(=O)c2cccc(NC(=O)c3c(F)cc(F)cc3F)n2)CC1 12

# query: Population Tubulin-Different-Phenotype (%) of entry O=C(Nc1cc(-c2ccccc2)nn1-c1ccccc1F)c1ccc([N+](=O)[O-])cc1 7

# query: Population Tubulin-Different-Phenotype (%) of entry COc1cc2nc(N3CCN(C(=O)c4ccco4)CC3)nc(N)c2cc1OC.Cl [PRAZOSIN HYDROCHLORIDE] 6

# query: Population Tubulin-Different-Phenotype (%) of entry CCc1nn2c(C)cc(C)nc2c1Cc1ccc(-c2nnc(C3CCNCC3)o2)cc1 28

# query: Population Tubulin-Different-Phenotype (%) of entry CCC(=O)OCC(=O)[C@@]1(OC(=O)CC)[C@@H](C)C[C@H]2[C@@H]3CCC4=CC(=O)C=C[C@]4(C)[C@@]3(Cl)[C@@H](O)C[C@@]21C [BECLOMETHASONE DIPROPIONATE] 80

# query: Population Tubulin-Different-Phenotype (%) of entry C[C@H](NC(=O)CNC(=O)c1cccc(Cl)c1)c1ccccc1 4

# query: Population Tubulin-Different-Phenotype (%) of entry COCCn1c(C)c(C)s/c1=N\C(=O)C1C(C)(C)C1(C)C 5

# query: Population Tubulin-Different-Phenotype (%) of entry Nc1nc(-c2ccco2)c2cnn(Cc3ccccc3F)c2n1 7

# query: Population Tubulin-Different-Phenotype (%) of entry COC(c1ccccc1)(c1ccccc1)[C@H](Oc1nc(C)cc(C)n1)C(=O)O 1

# query: Population Tubulin-Different-Phenotype (%) of entry CN1C[C@H](C(=O)N[C@]2(C)O[C@@]3(O)[C@@H]4CCCN4C(=O)[C@H](Cc4ccccc4)N3C2=O)C[C@@H]2c3cccc4[nH]cc(c34)C[C@H]21.CS(=O)(=O)O [DIHYDROERGOTAMINE MESYLATE] 3

# query: Population Tubulin-Different-Phenotype (%) of entry COc1ccc2[nH]c(I)c(CCNC(C)=O)c2c1 1

# query: Population Tubulin-Different-Phenotype (%) of entry Cc1cc(=O)n(C)c2cc(N3C(=O)CC[C@H](NS(=O)(=O)CC(C)C)[C@H]3c3ccc(Cl)cc3)ccc12 65

# query: Population Tubulin-Different-Phenotype (%) of entry Cc1ccc(OCC(O)C(C)NC(C)C)c2c1CCC2.Cl (centres undefined) 8

# query: Population Tubulin-Different-Phenotype (%) of entry O=c1ccc2ccc(OCCCCN3CCN(c4cccc5sccc45)CC3)cc2[nH]1 83

# query: Population Tubulin-Different-Phenotype (%) of entry C=CCN1C[C@H](C(=O)N(CCCN(C)C)C(=O)NCC)C[C@@H]2c3cccc4[nH]cc(c34)C[C@H]21 11

# query: Population Tubulin-Different-Phenotype (%) of entry COc1ccc2c(c1OCc1ccccc1)C[C@@H](C(=O)O)N(C(=O)C(c1ccccc1)c1ccccc1)C2 2

# query: Population Tubulin-Different-Phenotype (%) of entry CN(C)C/C=C/C(=O)Nc1ccc(C(=O)N2CCCC(Nc3ncc(Cl)c(-c4c[nH]c5ccccc45)n3)C2)cc1 (centres undefined) 49

# query: Population Tubulin-Different-Phenotype (%) of entry Cc1cc(NC(=O)NCCN2CCC(O)(Cc3ccccc3)CC2)c2ccccc2n1 1

# query: Population Tubulin-Different-Phenotype (%) of entry CC(C)(O)C(=O)N1CCN(c2ccc(C(F)(F)F)c(C3=C(c4c[nH]c5ccccc45)C(=O)NC3=O)c2)CC1 30

# query: Population Tubulin-Different-Phenotype (%) of entry COc1cc(OC2CCN(C(C)=O)CC2)ccc1C(=O)N1CCC(N2C(=O)OCc3ccccc32)CC1 12

# query: Population Tubulin-Different-Phenotype (%) of entry CN1CCN2c3ccccc3Cc3ccccc3C2C1.Cl (centres undefined) [MIANSERIN HYDROCHLORIDE] 4

# query: Population Tubulin-Different-Phenotype (%) of entry CN(C)C(=O)Cn1cc(-c2ccc(-c3nnc4ccccn34)cc2)cn1 3

# query: Population Tubulin-Different-Phenotype (%) of entry Cl.Cl.OCCOCCN1CCN(C(c2ccccc2)c2ccc(Cl)cc2)CC1 (centres undefined) [HYDROXYZINE HYDROCHLORIDE] 6

# query: Population Tubulin-Different-Phenotype (%) of entry CCCCC[C@H](O)/C=C/[C@H]1[C@H](O)CC(=O)[C@@H]1CCCCCCC(=O)O 0

Sourced from ChEMBL document CHEMBL5058577
